- TARGET_OR_TEST_SYSTEM: h P2X3 (Homo sapiens, UniProt P56373)
- Sequence (P56373 1-397): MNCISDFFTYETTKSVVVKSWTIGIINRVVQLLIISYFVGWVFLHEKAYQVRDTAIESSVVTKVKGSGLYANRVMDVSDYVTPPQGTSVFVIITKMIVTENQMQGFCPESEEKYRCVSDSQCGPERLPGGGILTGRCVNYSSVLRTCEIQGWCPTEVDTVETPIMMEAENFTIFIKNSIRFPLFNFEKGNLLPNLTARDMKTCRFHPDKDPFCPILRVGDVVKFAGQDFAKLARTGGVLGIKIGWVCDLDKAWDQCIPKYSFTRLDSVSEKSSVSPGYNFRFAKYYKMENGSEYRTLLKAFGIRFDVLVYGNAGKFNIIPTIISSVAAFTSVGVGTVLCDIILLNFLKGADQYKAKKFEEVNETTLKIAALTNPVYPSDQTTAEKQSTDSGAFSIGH
- TEST_PROTOCOL: In vitro electrophysiology assay for P2X3 (automated whole-cell patch clamp, Sophion Qube)
- Format: cell-based
- MEASUREMENT_PARAMETERS: Table 7; range of activity
METRIC_NAME: IC50

| COMPOUND | RESULT |
| --- | --- |
| COc1cc(-c2ccc(C)cn2)cc2c(NC(C)c3nc(C)no3)ncnc12 (single isomer, unassigned) | < 316 nM |
| COc1cc(-c2ncc(C)cn2)cc2c(NCc3nnc(C)s3)ncnc12 | < 316 nM |
| COc1cc(-c2ncc(C)cn2)cc2c(NCc3nc(C(F)(F)F)no3)ncnc12 | < 316 nM |
| COc1cc(-c2ncc(C)s2)cc2c(NC(C)c3noc(C)n3)ncnc12 (stereo not shown) | < 316 nM |
| COc1cc(-c2ccc(C)cn2)cc2c(NCc3noc(C)n3)ncnc12 | 316 to 3160 nM |
| Cc1ccc(CNc2ncnc3c(OC4CCOCC4)cc(-c4ccc(F)cn4)cc23)nn1 | 316 to 3160 nM |
| COc1cc(-c2ncc(C)cn2)cc2c(NCc3ccn(C)c(=O)c3)ncnc12 | < 316 nM |
| COc1cc(-c2ccc(F)cn2)cc2c(NC(C)c3nc(C)no3)ncnc12 (stereo not shown) [Example 2] | < 316 nM |
| COc1cc(-c2ccc(F)cn2)cc2c(NCc3ccc(C(F)(F)F)nc3)ncnc12 | < 316 nM |
| COc1cc(-c2ncc(C)cn2)cc2c(NCc3cccc(=O)[nH]3)ncnc12 | < 316 nM |
| COc1cc(-c2ncc(C)cn2)cc2c(NC(C)c3nnc(C)o3)ncnc12 (single isomer, unassigned) | < 316 nM |
| COc1cc(-c2ccc(C)cn2)cc2c(NCc3cc(C)no3)ncnc12 | < 316 nM |
| Cc1cnc(-c2cc(OC3CCOCC3)c3ncnc(NC(C)c4ccc(C)nn4)c3c2)nc1 (single isomer, unassigned) | < 316 nM |
